- TGT: UniProtKB Q15910
- Sequence (Q15910 whole entry): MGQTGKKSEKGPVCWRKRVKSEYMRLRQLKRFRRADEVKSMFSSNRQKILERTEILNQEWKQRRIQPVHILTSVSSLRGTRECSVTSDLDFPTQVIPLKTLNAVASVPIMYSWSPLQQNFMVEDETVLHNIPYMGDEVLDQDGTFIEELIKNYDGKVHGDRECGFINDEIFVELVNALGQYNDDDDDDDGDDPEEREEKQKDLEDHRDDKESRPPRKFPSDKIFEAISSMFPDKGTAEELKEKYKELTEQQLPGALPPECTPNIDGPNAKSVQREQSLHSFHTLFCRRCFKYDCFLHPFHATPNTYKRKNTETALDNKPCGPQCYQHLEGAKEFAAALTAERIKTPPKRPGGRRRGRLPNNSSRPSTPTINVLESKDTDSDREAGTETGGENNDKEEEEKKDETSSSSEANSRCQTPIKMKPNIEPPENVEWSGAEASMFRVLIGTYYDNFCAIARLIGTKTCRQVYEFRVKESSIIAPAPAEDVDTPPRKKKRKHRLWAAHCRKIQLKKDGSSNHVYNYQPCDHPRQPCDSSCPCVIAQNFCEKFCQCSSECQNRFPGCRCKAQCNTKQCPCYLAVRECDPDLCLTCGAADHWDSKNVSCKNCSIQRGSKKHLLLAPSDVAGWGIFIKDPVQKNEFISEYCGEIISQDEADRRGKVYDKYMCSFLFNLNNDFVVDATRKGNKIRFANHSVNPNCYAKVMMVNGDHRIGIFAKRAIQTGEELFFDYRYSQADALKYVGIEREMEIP
- Sequence (O75530 whole entry partner): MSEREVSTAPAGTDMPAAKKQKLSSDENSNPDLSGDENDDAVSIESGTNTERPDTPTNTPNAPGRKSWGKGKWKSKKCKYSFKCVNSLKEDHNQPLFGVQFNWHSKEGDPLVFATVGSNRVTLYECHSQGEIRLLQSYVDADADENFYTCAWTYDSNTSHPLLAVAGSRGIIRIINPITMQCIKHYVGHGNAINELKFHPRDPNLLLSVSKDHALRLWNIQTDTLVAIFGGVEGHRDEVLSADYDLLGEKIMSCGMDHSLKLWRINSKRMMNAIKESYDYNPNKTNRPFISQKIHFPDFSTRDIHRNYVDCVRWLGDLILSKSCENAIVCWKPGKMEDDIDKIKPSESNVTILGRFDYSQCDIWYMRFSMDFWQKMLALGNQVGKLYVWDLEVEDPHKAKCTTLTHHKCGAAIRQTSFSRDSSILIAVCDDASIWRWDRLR
- Sequence (Q15022 whole entry partner): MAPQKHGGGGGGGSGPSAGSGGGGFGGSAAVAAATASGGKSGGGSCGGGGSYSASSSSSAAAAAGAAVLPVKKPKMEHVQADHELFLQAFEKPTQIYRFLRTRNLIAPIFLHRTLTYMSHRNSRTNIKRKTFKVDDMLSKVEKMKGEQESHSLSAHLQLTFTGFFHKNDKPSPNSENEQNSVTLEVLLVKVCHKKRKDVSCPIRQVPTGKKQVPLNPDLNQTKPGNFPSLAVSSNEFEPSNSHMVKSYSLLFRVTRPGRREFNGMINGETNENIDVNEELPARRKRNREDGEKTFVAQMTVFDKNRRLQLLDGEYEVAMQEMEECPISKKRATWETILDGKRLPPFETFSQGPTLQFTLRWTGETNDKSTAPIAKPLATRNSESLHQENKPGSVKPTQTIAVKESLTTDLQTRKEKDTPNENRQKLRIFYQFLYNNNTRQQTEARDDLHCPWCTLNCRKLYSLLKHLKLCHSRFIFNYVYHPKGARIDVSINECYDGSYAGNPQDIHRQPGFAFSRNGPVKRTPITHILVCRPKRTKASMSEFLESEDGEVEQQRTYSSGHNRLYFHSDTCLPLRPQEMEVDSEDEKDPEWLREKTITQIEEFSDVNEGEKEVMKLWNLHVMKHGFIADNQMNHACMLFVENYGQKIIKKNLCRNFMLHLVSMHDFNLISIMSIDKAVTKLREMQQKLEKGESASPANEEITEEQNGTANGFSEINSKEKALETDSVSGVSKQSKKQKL
- Sequence (Q09028 whole entry partner): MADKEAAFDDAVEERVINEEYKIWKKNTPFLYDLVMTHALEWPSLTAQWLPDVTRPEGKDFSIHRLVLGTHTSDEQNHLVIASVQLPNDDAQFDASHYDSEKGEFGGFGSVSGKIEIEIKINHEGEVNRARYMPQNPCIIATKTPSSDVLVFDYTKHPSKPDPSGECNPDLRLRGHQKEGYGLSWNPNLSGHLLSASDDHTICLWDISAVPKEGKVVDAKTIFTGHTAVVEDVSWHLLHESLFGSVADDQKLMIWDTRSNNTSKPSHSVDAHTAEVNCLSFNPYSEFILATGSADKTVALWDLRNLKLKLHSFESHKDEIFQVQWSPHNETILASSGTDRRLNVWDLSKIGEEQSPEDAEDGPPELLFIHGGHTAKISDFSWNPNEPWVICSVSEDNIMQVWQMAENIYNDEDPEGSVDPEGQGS
- Sequence (Q6ZN18 whole entry partner): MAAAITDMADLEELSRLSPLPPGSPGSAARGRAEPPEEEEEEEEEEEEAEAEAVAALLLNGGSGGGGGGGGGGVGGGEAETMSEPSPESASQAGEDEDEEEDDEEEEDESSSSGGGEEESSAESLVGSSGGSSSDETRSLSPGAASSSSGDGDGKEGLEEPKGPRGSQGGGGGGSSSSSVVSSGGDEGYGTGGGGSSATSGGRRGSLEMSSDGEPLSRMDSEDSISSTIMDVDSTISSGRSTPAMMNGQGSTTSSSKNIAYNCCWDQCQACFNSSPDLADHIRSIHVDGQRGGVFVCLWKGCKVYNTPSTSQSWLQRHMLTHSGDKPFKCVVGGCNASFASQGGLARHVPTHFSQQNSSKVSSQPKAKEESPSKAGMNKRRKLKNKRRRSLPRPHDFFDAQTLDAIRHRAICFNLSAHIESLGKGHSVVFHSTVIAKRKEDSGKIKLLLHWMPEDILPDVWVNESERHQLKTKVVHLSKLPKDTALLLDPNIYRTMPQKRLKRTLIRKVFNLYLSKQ
- TEST: EZH2 residence time assay (100-fold dilution of pre-formed enzyme-inhibitor complex)
- Format: biochemical
RECORDED_ENDPOINT: residence time

QUERY: Could you please provide reported residence time for Cc1cc(SC(F)F)c(CNC(=O)c2c(C)n([C@H](C)C3CCN(CC(F)(F)F)CC3)c3ccccc23)c(=O)[nH]1 [drawing 266] ? Thanks!
RESULT: < 30 min

QUERY: Could you please provide reported residence time for CSc1cc(C)[nH]c(=O)c1CNC(=O)c1c(C)n([C@H](C)C2CCC(N3CC(OC(F)F)C3)CC2)c2ccccc12 (single isomer, unassigned) [drawing 252] ? Thanks!
RESULT: > 2100 min

QUERY: Could you please provide reported residence time for CSc1cc(C)[nH]c(=O)c1CNC(=O)c1c(C)n([C@H](C)C23CC(NC4COC4)(C2)C3)c2ccccc12 [drawing 234] ? Thanks!
RESULT: 300 to 2100 min

QUERY: Could you please provide reported residence time for CSc1cc(C)[nH]c(=O)c1CNC(=O)c1c(C)n([C@H](C)C2CCN(CC(C)(C)O)CC2)c2ccccc12 [drawing 240] ? Thanks!
RESULT: 300 to 2100 min
